- Test system: genotype 1b NS3/4a protease inhibitor resistant variant D168A transient HCV replicon in Huh-7-derived cells
- assay info: Transient-transfected HCV replicon EC50, genotype 1b D168A
- Type: cell-based, hepatitis C virus
- condition parameters: Hepatitis C virus, 72 h, read-out: EC50 1B D168A, transient-transfected replicon genotype 1b D168A resistant variant, 72 h
quantity name: EC50 (nM)

[[record]]
molecule = "CC[C@@H]1[C@@H]2CN(C(=O)[C@H](C3CCCC3)NC(=O)O[C@@H]3C[C@H]3CCCCCc3nc4ccc(OC)cc4nc3O2)[C@@H]1C(=O)N[C@]1(C(=O)NS(=O)(=O)C2(C)CC2)C[C@H]1C(F)F [Example 14]"
recorded_number = 99

[[record]]
molecule = "CC[C@@H]1[C@@H]2CN(C(=O)[C@H](C(C)(C)C)NC(=O)O[C@@H]3C[C@H]3CCCCCc3nc4ccc(OC)cc4nc3O2)[C@@H]1C(=O)N[C@]1(C(=O)NS(=O)(=O)C2(C)CC2)C[C@H]1CC [Example 4]"
recorded_number = 66

[[record]]
molecule = "CC[C@@H]1[C@@H]2CN(C(=O)[C@H](C(C)(C)C)NC(=O)O[C@@H]3C[C@H]3CCCCC(F)(F)c3nc4ccccc4nc3O2)[C@@H]1C(=O)N[C@]1(C(=O)NS(=O)(=O)C2CC2)C[C@H]1CC [Example 54]"
recorded_number = 123

[[record]]
molecule = "CC[C@@H]1[C@@H]2CN(C(=O)[C@H](C(C)(C)C)NC(=O)O[C@@H]3C[C@H]3CCCCC(F)(F)c3nc4ccc(OC)cc4nc3O2)[C@@H]1C(=O)N[C@]1(C(=O)NS(=O)(=O)C2CC2)C[C@H]1CC [Example 34]"
recorded_number = 64

[[record]]
molecule = "CC[C@@H]1[C@@H]2CN(C(=O)[C@H](C(C)(C)C)NC(=O)O[C@@H]3C[C@H]3CCCCCc3nc4ccc(OC)cc4nc3O2)[C@@H]1C(=O)N[C@]1(C(=O)NS(=O)(=O)C2CC2)C[C@H]1CC [Example 3]"
recorded_number = 128


* * *

The entries below are paired with their reported pEC50.
- Test system: genotype 4a (ED43) stable HCV replicon in Huh-7-derived cells
- assay info: Stable subgenomic HCV replicon EC50, genotype 4a (Renilla luciferase)
- Assay type: cell-based, hepatitis C virus
- condition parameters: Hepatitis C virus, 72 h, read-out: EC50 4A RLUC
pEC50: −log10 of the molar value.
quantity name: pEC50

[[record]]
compound = "CC[C@@H]1[C@@H]2CN(C(=O)[C@H](C(C)(C)C)NC(=O)O[C@@H]3C[C@H]3CCCCC(F)c3nc4ccc(OC)cc4nc3O2)[C@@H]1C(=O)N[C@]1(C(=O)NS(=O)(=O)C2(C)CC2)C[C@H]1C(F)F (stereo partly drawn) [Example 90]"
quantity_name = "pEC50"
recorded_number = 7.98

[[record]]
compound = "CC[C@@H]1[C@@H]2CN(C(=O)[C@H](C(C)(C)C)NC(=O)O[C@@H]3C[C@H]3CCCCCc3nc4ccc(OC)cc4nc3O2)[C@@H]1C(=O)N[C@]1(C(=O)NS(=O)(=O)C2CC2)C[C@H]1CC [Example 3]"
quantity_name = "pEC50"
recorded_number = 8.00

[[record]]
compound = "CC[C@@H]1[C@@H]2CN(C(=O)[C@H](C(C)(C)C)NC(=O)O[C@@H]3[C@H]4CC[C@H](C4)[C@H]3CCCCCc3nc4ccc(OC)cc4nc3O2)[C@@H]1C(=O)N[C@]1(C(=O)NS(=O)(=O)C2CC2)C[C@H]1C(F)F [Example 13]"
quantity_name = "pEC50"
recorded_number = 7.96

